Data provenance is paper PMC9458460.

assayed.target: LARP1 LaM-RRM region (UniProt Q6PKG0-3 323-509)
method.summary: ITC; 10 mM MES pH 6.3, 100 mM NaCl, 1 mM TCEP (HPLC and NMR buffer; ITC buffer not stated separately); ITC 293 K, NMR 25 C
experimental.context: protein: recombinant
property.label: Kd

[[record]]
binder = "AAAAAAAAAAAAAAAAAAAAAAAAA (ssRNA) [A25]"
property_label = "Kd"
recorded_measurement = "~200 nM"

